- Tested on: SF-295 CNS
- protocolDetails: NCI tumour cell line growth inhibition, 48 h
experimentalEndpoint: TGI (µM)

[
  {
    "molecule": "C(=C\\c1ccc2ccccc2c1Nc1ccccc1)/c1ccccc1",
    "studySystem": "SF-295 CNS",
    "censorSymbol": ">",
    "reported": 100
  },
  {
    "molecule": "Clc1ccc(Cc2nc3cc(Cl)c(Cl)cc3n2CC2CCCN3CCCCC23)cc1 (stereo not drawn)",
    "studySystem": "SF-295 CNS",
    "censorSymbol": "=",
    "reported": 29.2
  },
  {
    "molecule": "CCCCCn1sc(=O)n(Cc2ccc(CNC(=O)C(C)c3ccc(CC(C)C)cc3)cc2)c1=O (stereo not drawn)",
    "studySystem": "SF-295 CNS",
    "censorSymbol": "=",
    "reported": 3.92
  },
  {
    "molecule": "COc1cc2c(c3oc4c(O)cccc4c(=O)c13)CC(C(C)(O)CCl)O2 (stereo not drawn)",
    "studySystem": "SF-295 CNS",
    "censorSymbol": "=",
    "reported": 24.1
  },
  {
    "molecule": "CCOC(=O)c1cccc(N=NNc2cccc(C(=O)OCC)c2)c1",
    "studySystem": "SF-295 CNS",
    "censorSymbol": "=",
    "reported": 45.4
  },
  {
    "molecule": "COC(=O)C(=O)C(C(=O)C(=O)Nc1cc(C)ccc1C)c1nc2ccccc2[nH]c1=O (stereo not drawn)",
    "studySystem": "SF-295 CNS",
    "censorSymbol": ">",
    "reported": 100
  },
  {
    "molecule": "CC(C)C1OC(=O)C(Cc2ccccc2)N(C)C(=O)C(C(C)C)OC(=O)C(Cc2ccccc2)N(C)C(=O)C(C(C)C)OC(=O)C(Cc2ccccc2)N(C)C1=O (stereo not drawn)",
    "studySystem": "SF-295 CNS",
    "censorSymbol": "=",
    "reported": 1.79
  },
  {
    "molecule": "N#Cc1sc2nc3c(c(-c4ccccc4)c2c1N)CCCC3",
    "studySystem": "SF-295 CNS",
    "censorSymbol": "=",
    "reported": 43.6
  },
  {
    "molecule": "CN1CCN(Cc2ccc(NC(=O)c3cncc(C#Cc4c(N)ncc5ccccc45)c3)cc2C(F)(F)F)CC1",
    "studySystem": "SF-295 CNS",
    "censorSymbol": "=",
    "reported": 1.57
  },
  {
    "molecule": "O=C1c2cccc3cc([N+](=O)[O-])cc(c23)C(=O)N1c1ccc(OCCN2CCCC2)cc1",
    "studySystem": "SF-295 CNS",
    "censorSymbol": "=",
    "reported": 41.1
  },
  {
    "molecule": "CC1=C(C(=S)Nc2ccc(Cl)c(C(=O)OC(C)C)c2)SCCO1",
    "studySystem": "SF-295 CNS",
    "censorSymbol": "=",
    "reported": 36.4
  },
  {
    "molecule": "CCc1ccc([OH2+])c(C(=O)[O-])c1.CCc1ccc([OH2+])c(C(=O)[O-])c1.CCc1ccc([OH2+])c(C(=O)[O-])c1.CCc1ccc([OH2+])c(C(=O)[O-])c1.[Cu+2].[Cu+2]",
    "studySystem": "SF-295 CNS",
    "censorSymbol": ">",
    "reported": 100
  },
  {
    "molecule": "CC1(C)OCC(/C=C\\C(O)CC2(C)OCCO2)CO1 (stereo not drawn)",
    "studySystem": "SF-295 CNS",
    "censorSymbol": ">",
    "reported": 100
  },
  {
    "molecule": "COc1oc(C2C/C(=C/C(C)=C/C(C)=C/C(C)=C/c3ccc([N+](=O)[O-])cc3)CO2)c(C)c(=O)c1C (stereo not drawn)",
    "studySystem": "SF-295 CNS",
    "censorSymbol": "=",
    "reported": 34.7
  },
  {
    "molecule": "CC1=C(\\C=C/C(C)=C/C=C/C(C)=C/C=C/C=C(C)\\C=C\\C=C(C)/C=C/C2=C(C)CCCC2(C)C)C(C)(C)CCC1",
    "studySystem": "SF-295 CNS",
    "censorSymbol": ">",
    "reported": 100
  },
  {
    "molecule": "CC/C(CC(=O)CCC(=O)Nc1ccc(C)c(C)c1)=N\\NC(=O)c1cc2ccccc2cc1O",
    "studySystem": "SF-295 CNS",
    "censorSymbol": ">",
    "reported": 100
  },
  {
    "molecule": "COc1cc(OC)c(/C=C/S(=O)(=O)Cc2ccc(OC)c(N)n2)c(OC)c1",
    "studySystem": "SF-295 CNS",
    "censorSymbol": ">",
    "reported": 100
  },
  {
    "molecule": "O=C(OC1C#CCSCC#C/C=C\\1)c1ccc2c(c1)C(=O)c1ccccc1C2=O (stereo not drawn)",
    "studySystem": "SF-295 CNS",
    "censorSymbol": ">",
    "reported": 100
  },
  {
    "molecule": "Cc1ccc(NC(c2ccccc2)P(=O)(c2ccccc2)c2ccccc2)cc1 (stereo not drawn)",
    "studySystem": "SF-295 CNS",
    "censorSymbol": ">",
    "reported": 100
  },
  {
    "molecule": "CC(=O)CC(O)(C(F)(F)Cl)C(F)(Cl)Cl (stereo not drawn)",
    "studySystem": "SF-295 CNS",
    "censorSymbol": ">",
    "reported": 10
  },
  {
    "molecule": "O=C1C=C2SC3C[C@@]24CC1(O)[N+]1=c2c4c(c(O)c4c2=C(C=N4)CC1)N3",
    "studySystem": "SF-295 CNS",
    "censorSymbol": "=",
    "reported": 2.95
  },
  {
    "molecule": "CC(=O)OC1COC(N2C(=O)C(=O)c3ccccc32)C(OC(C)=O)C1OC(C)=O (stereo not drawn)",
    "studySystem": "SF-295 CNS",
    "censorSymbol": ">",
    "reported": 100
  },
  {
    "molecule": "Cc1ccc(-c2ccc3c(c2)Sc2ccccc2O3)n1C",
    "studySystem": "SF-295 CNS",
    "censorSymbol": "=",
    "reported": 0.799
  },
  {
    "molecule": "CNC(=O)OC1/C(C)=C\\C(C)C(O)C(OC)CC(C)CC2=C(OC)C(=O)C=C(C2=O)N(C)C(=O)/C(C)=C/C=C\\C1OC (stereo not drawn)",
    "studySystem": "SF-295 CNS",
    "censorSymbol": "=",
    "reported": 46.5
  },
  {
    "molecule": "COc1ccc([C@@H]2[C@@H](Cl)C(=O)N2c2cc(OC)c(OC)c(OC)c2)cc1C",
    "studySystem": "SF-295 CNS",
    "censorSymbol": "=",
    "reported": 39.7
  },
  {
    "molecule": "CCOC(=O)CN(CC)C(=O)NC12CC3CC(CC(C3)C1)C2",
    "studySystem": "SF-295 CNS",
    "censorSymbol": ">",
    "reported": 615
  },
  {
    "molecule": "COC(=O)[C@@H]1CN(C(=O)Cc2ccccc2)C(=O)N1",
    "studySystem": "SF-295 CNS",
    "censorSymbol": ">",
    "reported": 100
  },
  {
    "molecule": "CCCOC(=O)CCC(NC(=O)c1ccc(Nc2nc3ccccc3nc2-c2cccs2)cc1)C(=O)OCCC (stereo not drawn)",
    "studySystem": "SF-295 CNS",
    "censorSymbol": ">",
    "reported": 100
  },
  {
    "molecule": "CCCNC(=O)c1cc(OC)c(OC)cc1NC(=O)C12CC3CC(CC(C3)C1)C2",
    "studySystem": "SF-295 CNS",
    "censorSymbol": "=",
    "reported": 35.9
  },
  {
    "molecule": "CCOC(=O)C(=O)CC(=O)C(Br)C(Br)c1ccc(Cl)cc1 (stereo not drawn)",
    "studySystem": "SF-295 CNS",
    "censorSymbol": ">",
    "reported": 100
  },
  {
    "molecule": "O=C(Cn1c(=O)oc2ccccc21)N(c1ccccc1)c1ccccc1",
    "studySystem": "SF-295 CNS",
    "censorSymbol": ">",
    "reported": 100
  },
  {
    "molecule": "COc1ccc(/C=C(\\C#N)c2ccccn2)cc1OC",
    "studySystem": "SF-295 CNS",
    "censorSymbol": "=",
    "reported": 85.3
  },
  {
    "molecule": "CC(NC(CC12CC3CC(CC(C3)C1)C2)C(N)=O)c1ccccc1 (stereo not drawn)",
    "studySystem": "SF-295 CNS",
    "censorSymbol": "=",
    "reported": 28.4
  },
  {
    "molecule": "CCN(CC)C(=O)N[C@@H](CC(C)C)C(=O)NC",
    "studySystem": "SF-295 CNS",
    "censorSymbol": ">",
    "reported": 100
  },
  {
    "molecule": "COC(=O)CC(=O)OC1C[C@@H]2CCC3C(C)(C)CCC[C@]3(C)C23CC[C@@]1(C)C3 (stereo partly drawn)",
    "studySystem": "SF-295 CNS",
    "censorSymbol": "=",
    "reported": 34.5
  },
  {
    "molecule": "Cc1cnc(C(=O)Nc2nc3ccc(S(=O)(=O)Nc4ccc(C(C)(C)C)cc4)cc3[nH]2)cn1",
    "studySystem": "SF-295 CNS",
    "censorSymbol": "=",
    "reported": 4.21
  },
  {
    "molecule": "CCNC(=O)O/N=C1\\CCC2[C@@H]3CC=C4C[C@@H](OC(=O)NCC)CC[C@]4(C)C3CC[C@]12C (stereo partly drawn)",
    "studySystem": "SF-295 CNS",
    "censorSymbol": "=",
    "reported": 11.4
  },
  {
    "molecule": "C=CCSC1=N/C(=C\\c2ccc(C)cc2)C(=O)N1CC=C",
    "studySystem": "SF-295 CNS",
    "censorSymbol": ">",
    "reported": 100
  }
]

Where do these numbers come from? They come from PubChem BioAssay (NCI).
